// provenance: patent EP4269437A1

For each of the binders below, state its OD450, clone binding with PD-1.
Target: PD-1 (UniProt Q15116)
Sequence (Q15116 25-170 limits assumed): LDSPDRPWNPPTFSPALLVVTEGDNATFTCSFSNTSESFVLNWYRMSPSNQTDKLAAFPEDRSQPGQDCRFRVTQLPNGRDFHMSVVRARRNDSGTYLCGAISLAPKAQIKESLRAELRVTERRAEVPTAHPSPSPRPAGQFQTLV
Experiment: ELISA, TG1 supernatant on coated PD-1, anti-c-myc HRP
Numbers only; they are read as OD450.

[in] May I ask what OD450, clone binding with PD-1 has been recorded for NB222 (VHH) VHH: QVQLVESGGGLVQAGGSLRLSCAASGGTFSNFNVGWFRQAPGKEREFVAASNWSAGTTHYSDSVKGRFTISRDNAANTAYLQMNSLRPDDTAVYYCNRVIRGTTYPDVYYGMDYWGKGTLVTVSS ?
[out] 3.13

[in] May I ask what OD450, clone binding with PD-1 has been recorded for NB189 (VHH) VHH: QVKLEESGGGLVQAGGSLRLSCTASGGTFNSYAMGWFRQAPGKERESVAAINLSRGNTYYADSVKGRFTISRDNAKNTVYLQMNSLKPEDTAVYHCGVDRRQYGLGIPPLADHWGQGTQVTVSS ?
[out] 2.97

[in] May I ask what OD450, clone binding with PD-1 has been recorded for NB192 (VHH) VHH: EVQLVESGGGLVQAGGSLRLSCAASGRTFNGYGMGWFRQAPGKEREFVAAISWRDSSKYYADSVRDRFTASRDNAKNTVYLQMNSLKPEDTAVYYCRPYSDYVTYDPYDYDAWGQGTQVTVSS ?
[out] 2.65

[in] May I ask what OD450, clone binding with PD-1 has been recorded for NB172 (VHH) VHH: EVQLVESGGGLVQAGGSLRLSCTASGDTRLASAMGWYRQAPGKERELVAVITNSGLTHYADSVEGRFTISRDSAKNTVYLQMNSLKPEDTAVYYCNAGAPPPGGLGYDESDYWDQGTQVTVSS ?
[out] 3.05

[in] May I ask what OD450, clone binding with PD-1 has been recorded for NB202 (VHH) VHH: EVQVVESGGGLVQAGGSLRLSCTASGDTRLASAMGWYRQAPGKERELVAAITNSGLTYYADSVEGRFTISRDSAKNTVYLQMNSLKPEDTAVYYCNAGAPPPGGLGYDESDYWGQGTQVTVSS ?
[out] 3.04

[in] May I ask what OD450, clone binding with PD-1 has been recorded for NB548 (VHH) VHH: QLQLVESGGGLVQPGGSLRLSCTANGFSVGDYSMSWHRQPPGKEREVVATTARDSGSTFYAASVKGRFTISRDNAKNTVYLQMNSLKPEDTGVYYCRVNSQDYWGQGTQVTVSS ?
[out] 2.13

[in] May I ask what OD450, clone binding with PD-1 has been recorded for NB166 (VHH) VHH: EVQVQESGGGLVQAGGSLTLSCAASGDTILISSIGWYRQAPGKERELVAAITNSGLTYYPDSVKGRFTISRDNAKNTVYLQMNNLKPEDTAVYYCNAGGPPPGGLGYDESDYWGQGTQVTVSS ?
[out] 3.39

[in] May I ask what OD450, clone binding with PD-1 has been recorded for NB196 (VHH) VHH: QVQLVETGGGLVQAGGSLRLSCTASGDTNLFSAMGWHRQAPGKERELVAAITNSGMTYYADVVKGRFTLSRDNAKNTVYLQMNSLKPEDTAVYYCNAGAPPPGGFGYDESDYWGQGTQVTVSS ?
[out] 3.39
